Numbers sourced from the supplement of paper PMC9112550.

System: Escherichia coli TOP10
Assay Name: shrunken log2 fold change of peptide-encoding DNA abundance (4.5 h post-induction vs induction); higher = less antimicrobial activity (less host growth inhibition)
Condition Context: time post-induction: 4.5 h; library: site-saturation at positions 5, 18, 19, 20
Recorded shrunken log2 fold change split into classes 1 = under -0.1, 2 = from -0.1 up to -0.06, 3 = -0.06 and over

input: Bin this entry: `RRIRHRPPRLPRPRPRPVMFPRP`
output: 2

input: Note, next up: `RRIRDRPPRLPRPRPRPQVKPRP`
output: 3

input: Repeat with `RRIRQRPPRLPRPRPRPSQRPRP`
output: 1

input: Would you kindly repeat that for `RRIRWRPPRLPRPRPRPSYLPRP` ?
output: 1

input: Same question for `RRIRARPPRLPRPRPRPIKQPRP` please.
output: 2

input: Another sequence to check: `RRIRTRPPRLPRPRPRPSPRPRP`
output: 3

input: Can you check `RRIRSRPPRLPRPRPRPFFCPRP` next?
output: 1

input: Please do the same for `RRIRNRPPRLPRPRPRPYPQPRP` as well.
output: 1

input: Would you kindly repeat that for `RRIRTRPPRLPRPRPRPYGNPRP` ?
output: 2

input: Do the same for `RRIRCRPPRLPRPRPRPLQGPRP` please
output: 3

input: What do you get for `RRIRVRPPRLPRPRPRPWYKPRP` ?
output: 1

input: Input `RRIRYRPPRLPRPRPRPSSIPRP`
output: 1

----------
System: Escherichia coli TOP10
Assay Name: shrunken log2 fold change of peptide-encoding DNA abundance (4.5 h post-induction vs induction); higher = less antimicrobial activity (less host growth inhibition)
Condition Context: time post-induction: 4.5 h; library: site-saturation at positions 5, 18, 19, 20
param class (str): category from shrunken log2 fold change; see ranges group 1: < -0.1; group 2: ≥ -0.1 and < 0.03; group 3: ≥ 0.03

input: Note: place this sequence into its band. Item: `RRIRGRPPRLPRPRPRPTGKPRP`
output: group 3

input: `RRIRFRPPRLPRPRPRPMNRPRP` , same question.
output: group 2

input: And the next one, `RRIRKRPPRLPRPRPRPFQMPRP` ?
output: group 1

input: Next record, please: `RRIRKRPPRLPRPRPRPPINPRP`
output: group 2

input: Then `RRIRCRPPRLPRPRPRPMGRPRP` ?
output: group 3

input: And the next one, `RRIRIRPPRLPRPRPRPGKMPRP` ?
output: group 1

input: And for `RRIRGRPPRLPRPRPRPNTRPRP` ?
output: group 3

input: Same lookup for `RRIRVRPPRLPRPRPRPWDYPRP` , please.
output: group 2

input: Then `RRIRYRPPRLPRPRPRPKLIPRP` ?
output: group 1

input: Similarly, `RRIRLRPPRLPRPRPRPDYQPRP` ?
output: group 1

input: Item: `RRIRYRPPRLPRPRPRPQIVPRP`
output: group 1

input: Input `RRIRFRPPRLPRPRPRPVLQPRP`
output: group 3

input: Try `RRIRWRPPRLPRPRPRPMSYPRP` next.
output: group 1

input: Also `RRIRSRPPRLPRPRPRPMRPPRP` ?
output: group 3

input: And then `RRIRQRPPRLPRPRPRPHICPRP` , what is it?
output: group 2

input: Try this sequence too: `RRIRSRPPRLPRPRPRPGTLPRP`
output: group 1

input: Next up: `RRIRVRPPRLPRPRPRPFIEPRP`
output: group 1

input: Thanks! And `RRIRDRPPRLPRPRPRPIWSPRP` ?
output: group 2

input: Please give the result for `RRIRQRPPRLPRPRPRPFEPPRP` too.
output: group 1

input: One more sequence: `RRIRARPPRLPRPRPRPACMPRP`
output: group 3

input: // query: `RRIRPRPPRLPRPRPRPKESPRP`
output: group 3

input: Try the sequence `RRIRYRPPRLPRPRPRPMSFPRP`
output: group 2

input: Now give it for `RRIRGRPPRLPRPRPRPMDDPRP` too.
output: group 3

input: Next up: `RRIRWRPPRLPRPRPRPDFIPRP`
output: group 1

input: Now consider `RRIRMRPPRLPRPRPRPAVKPRP` and answer again.
output: group 3

input: Now the sequence `RRIRARPPRLPRPRPRPYLHPRP`
output: group 1

input: Moving on to `RRIRQRPPRLPRPRPRPIQFPRP`
output: group 1

input: And for `RRIRNRPPRLPRPRPRPNLKPRP` ?
output: group 1

input: Entry `RRIRNRPPRLPRPRPRPWFQPRP` please
output: group 1

input: What do we get for `RRIRLRPPRLPRPRPRPQRPPRP` ?
output: group 3

input: Also need `RRIRKRPPRLPRPRPRPRHFPRP` , thanks.
output: group 3

input: Check `RRIRDRPPRLPRPRPRPHPVPRP` too.
output: group 2

input: Next entry: `RRIRCRPPRLPRPRPRPVRCPRP`
output: group 2

input: # repeat for `RRIRTRPPRLPRPRPRPKTVPRP`
output: group 2

input: Then what about the sequence `RRIRLRPPRLPRPRPRPRDPPRP` ?
output: group 3

input: Then what about the sequence `RRIRKRPPRLPRPRPRPGHCPRP` ?
output: group 2

input: Now the sequence `RRIRLRPPRLPRPRPRPMVNPRP`
output: group 2

input: Record: `RRIRIRPPRLPRPRPRPTWQPRP`
output: group 3

input: What about this sequence? `RRIRCRPPRLPRPRPRPGEGPRP`
output: group 2

input: Quick one: `RRIRSRPPRLPRPRPRPKQHPRP`
output: group 3

input: Can you handle `RRIRPRPPRLPRPRPRPQAPPRP` next?
output: group 2

input: Now give it for `RRIRQRPPRLPRPRPRPHEMPRP` too.
output: group 1

input: Field entry: `RRIRIRPPRLPRPRPRPILEPRP`
output: group 2

input: Please answer likewise for `RRIRWRPPRLPRPRPRPSRNPRP`
output: group 2

input: What about this sequence? `RRIRNRPPRLPRPRPRPGLRPRP`
output: group 3

input: Please give the result for `RRIRHRPPRLPRPRPRPEQGPRP` too.
output: group 3

input: Next entry: `RRIRRRPPRLPRPRPRPQDDPRP`
output: group 2

input: What would you report for `RRIRQRPPRLPRPRPRPQCIPRP` ?
output: group 2

input: Another: `RRIRWRPPRLPRPRPRPYVTPRP`
output: group 1

input: Entry `RRIRKRPPRLPRPRPRPGQWPRP` please
output: group 3

input: Next sequence: `RRIRHRPPRLPRPRPRPKHVPRP`
output: group 1

input: Check `RRIRKRPPRLPRPRPRPEYWPRP` too.
output: group 2

input: Try this sequence next: `RRIRPRPPRLPRPRPRPHKCPRP`
output: group 1

input: Item: `RRIRCRPPRLPRPRPRPTQLPRP`
output: group 3

input: What do you get for `RRIRDRPPRLPRPRPRPPCLPRP` ?
output: group 1

input: Now consider `RRIRYRPPRLPRPRPRPHIMPRP` .
output: group 1

input: Then this sequence: `RRIRNRPPRLPRPRPRPIWLPRP`
output: group 3

----------
Tested on: Escherichia coli TOP10
Assay Name: shrunken log2 fold change of peptide-encoding DNA abundance (4.5 h post-induction vs induction); higher = less antimicrobial activity (less host growth inhibition)
Condition Context: time post-induction: 4.5 h; library: site-saturation at positions 5, 18, 19, 20
Test Readout: shrunken log2 fold change
# respond with the number and nothing more

input: May I ask what shrunken log2 fold change has been recorded for `RRIRNRPPRLPRPRPRPIINPRP` ?
output: -0.265

input: What do we get for `RRIRLRPPRLPRPRPRPKTEPRP` ?
output: 0.14

input: Same question for `RRIRCRPPRLPRPRPRPRLTPRP` please.
output: 0.0689

input: Would you mind doing `RRIRLRPPRLPRPRPRPMHMPRP` as well?
output: -0.226

input: How about `RRIRARPPRLPRPRPRPEINPRP` ?
output: 0.96

input: Thanks! And `RRIRGRPPRLPRPRPRPSVQPRP` ?
output: -0.0165

input: Item: `RRIRYRPPRLPRPRPRPVNQPRP`
output: -0.058

input: And what about the sequence `RRIRRRPPRLPRPRPRPRWHPRP` ?
output: 0.353

input: Same again, this time with `RRIRDRPPRLPRPRPRPKWVPRP`
output: 0.538

----------
I'd appreciate it if you could supply shrunken log2 fold change values for the items below.
Test system: Escherichia coli TOP10;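 also: peptides expressed intracellularly from a pBAD plasmid library in pooled LB shake-flask culture, induced with 0.3% L-arabinose, DNA abundance read by NGS, three biological replicates, DESeq2 with apeglm shrinkage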
Assay Name: shrunken log2 fold change of peptide-encoding DNA abundance (4.5 h post-induction vs induction); higher = less antimicrobial activity (less host growth inhibition)
Condition Context: time post-induction: 4.5 h; library: site-saturation at positions 5, 18, 19, 20
Answer with a number only.

input: Return shrunken log2 fold change measured with Escherichia coli TOP10 given this sequence: `RRIRPRPPRLPRPRPRPGDMPRP`
output: 0.00271

input: Thanks! And `RRIRMRPPRLPRPRPRPAMLPRP` ?
output: 1.22

input: `RRIRHRPPRLPRPRPRPCVVPRP` , same question.
output: 0.000418

input: Moving on to `RRIRHRPPRLPRPRPRPVWGPRP`
output: 0.479

input: Same question for `RRIRNRPPRLPRPRPRPSYTPRP` please.
output: -1.13

input: Next record, please: `RRIRVRPPRLPRPRPRPVMGPRP`
output: 0.216

input: Same question for `RRIRYRPPRLPRPRPRPGMHPRP` please.
output: -0.339

input: Next: `RRIRSRPPRLPRPRPRPGVRPRP`
output: -0.0323

input: Now consider `RRIRMRPPRLPRPRPRPFCSPRP` .
output: 0.0534

input: Would you kindly repeat that for `RRIRVRPPRLPRPRPRPSLPPRP` ?
output: -0.226

input: Entry to check: `RRIRCRPPRLPRPRPRPLFWPRP`
output: 0.153

input: Same read-out for `RRIRDRPPRLPRPRPRPSSRPRP` ?
output: -0.0968

input: Same question for `RRIRHRPPRLPRPRPRPDIVPRP` please.
output: -0.38

input: Moving on to the next sequence: `RRIRHRPPRLPRPRPRPYPIPRP`
output: -0.887

input: Try `RRIRWRPPRLPRPRPRPGLAPRP` next.
output: 0.505

input: Also check `RRIRLRPPRLPRPRPRPNWHPRP`
output: -0.0136
